Tested on: N-87 (human gastric cancer cells)
PROCEDURE TEXT: MTT cancer cell growth inhibition
Type: cell-based
RECORDED CONDITIONS: Homo sapiens, 72 h, MTT, 72 hours incubation, N-87 cells; read-out: GI50 N-87
Source text: MTT assay principle is yellow MTT can penetrate membrane into the cell, succinic dehydrogenase of the mitochondria in living cells can make exogenous MTT reduction of insoluble in water of blue-violet acicular formazan for crystallization and deposition in the cell, crystallization can be dissolved dimethyl sulfoxide (DMSO) solution, detected its absorbance at 490 nm/570 nm wavelength by enzyme-linked immunosorbent assay, which can reflect the number of cells. […] e) 570 nm readings. […]
MEASUREMENT LABEL: GI50 (nM)

C/C=C1\NC(=O)c2cccc(n2)CNC(=O)C[C@@H](/C=C/CCSC(=O)CCCCCC)OC(=O)[C@H](C(C)C)NC1=O; 29

1 = C/C=C1\NC(=O)c2ncc(F)c(n2)CNC(=O)C[C@@H](/C=C/CCSC(C)=O)OC(=O)[C@H](C)NC1=O
2 = C/C=C1\NC(=O)c2nc(ccc2SC)CNC(=O)C[C@@H](/C=C/CCSC(=O)CC)OC(=O)[C@H](C(C)C)NC1=O
Which entry shows the lesser value of GI50 here, 1 or 2 ? Your answer should be the label of the entry you select.
2
(2: 18 nM, 1: 31 nM)

A = C=C1NC(=O)c2nc(ccc2F)CNC(=O)C[C@@H](/C=C/CCSC(C)=O)OC(=O)[C@H](C)NC1=O
B = C/C=C1\NC(=O)c2cc(SC)cc(n2)CNC(=O)C[C@@H](/C=C/CCSC(C)=O)OC(=O)[C@@H](C)NC1=O
Higher GI50: A or B ? Your answer should be the label of the entry you select.
B

a = C/C=C1\NC(=O)c2nc(ccc2SC)CNC(=O)C[C@@H](/C=C/CCSC(=O)CCCCCC)OC(=O)[C@H](C(C)C)NC1=O
b = C=C1NC(=O)c2nc(ccc2F)CNC(=O)C[C@@H](/C=C/CCSC(C)=O)OC(=O)[C@H](C(C)C)NC1=O
Which entry shows the lesser value of GI50 here, a or b ? Your answer should be the label of the entry you select.
b

====

Tested on: KBM-5 (human chronic myelogenous leukemia)
PROCEDURE TEXT: MTT cancer cell growth inhibition
Type: cell-based
RECORDED CONDITIONS: Homo sapiens, KBM5, 72 h, MTT, 72 hours incubation, KBM-5 cells; read-out: GI50 KBM-5
MEASUREMENT LABEL: GI50 (nM)

C/C=C1\NC(=O)c2nc(ccc2SC)CNC(=O)C[C@@H](/C=C/CCSC(C)=O)OC(=O)[C@H](CCCCN)NC1=O [Compound 192]; 21
C=C1NC(=O)c2ccc(F)c(n2)CNC(=O)C[C@@H](/C=C/CCSC(C)=O)OC(=O)[C@H](C(C)C)NC1=O [Compound 86]; 61
CC(C)=C1NC(=O)c2cc(F)cc(n2)CNC(=O)C[C@@H](/C=C/CCS)OC(=O)[C@H](C(C)C)NC1=O [Compound 137]; 48
C/C=C1\NC(=O)c2cccc(n2)CNC(=O)C[C@@H](/C=C/CCSC(=O)CCCCCCC)OC(=O)[C@H](c2ccc(O)cc2)NC1=O [Compound 238]; 52

a = C/C=C1\NC(=O)c2cc(SC)cc(n2)CNC(=O)C[C@@H](/C=C/CCSC(C)=O)OC(=O)[C@H](CCCCNC(=O)OCC2c3ccccc3-c3ccccc32)NC1=O [Compound 196]
b = C/C=C1\NC(=O)c2cccc(n2)CNC(=O)C[C@@H](/C=C/CCS)OC(=O)[C@H](Cc2cccc3ccccc23)NC1=O [Compound 123]
Higher GI50: a or b ? Your answer should be the label of the entry you select.
b

Every entry's value here was drawn from patent US10065990B2.
